# Test system: 953936-095-R-J2-PDC spheroids with HUVEC/MSC, viability
# ASSAY_TEXT: Anticancer human tumor 953936-095-R-J2-PDC patient-derived cervical squamous cell carcinoma cell line growth inhibition [PI3K]
# CONDITION_SET: second compound 0.00316 µM; first compound 0.001 µM; stronger effect = lower value
# Lookup of reported viability, T/C keyed by entry
Hi! Could you send only the number? It should be in %, unit omitted.

Given the entry CC(C)n1nc(-c2ccc3oc(N)nc3c2)c2c(N)ncnc21 + COc1c(OCCCN2CCOCC2)ccc2c3n(c(=NC(=O)c4cnc(N)nc4)nc12)CCN3 , report its measured viability, T/C.
86.9

And then CC(=O)c1c(C)c2cnc(Nc3ccc(N4CCNCC4)cn3)nc2n(C2CCCC2)c1=O + COc1c(OCCCN2CCOCC2)ccc2c3n(c(=NC(=O)c4cnc(N)nc4)nc12)CCN3 , what is it?
85.6

Param item: Cn1ncnc1[C@H]1c2n[nH]c(=O)c3cc(F)cc(c23)N[C@@H]1c1ccc(F)cc1 + CC(Nc1ccc2c(c1)OCCn1cc(N3C(=O)OCC3C(F)F)nc1-2)C(N)=O
104

Quick one: Cn1ncnc1[C@H]1c2n[nH]c(=O)c3cc(F)cc(c23)N[C@@H]1c1ccc(F)cc1 + COc1c(OCCCN2CCOCC2)ccc2c3n(c(=NC(=O)c4cnc(N)nc4)nc12)CCN3
102

Now try CC(C)n1nc(-c2ccc3oc(N)nc3c2)c2c(N)ncnc21 + CC(Nc1ccc2c(c1)OCCn1cc(N3C(=O)OCC3C(F)F)nc1-2)C(N)=O .
93.3

Proceeding to the next compound to report its viability, T/C.
Quick one: viability, T/C for CC(=O)c1c(C)c2cnc(Nc3ccc(N4CCNCC4)cn3)nc2n(C2CCCC2)c1=O + CC(Nc1ccc2c(c1)OCCn1cc(N3C(=O)OCC3C(F)F)nc1-2)C(N)=O ?
93.1

###

# Tested on: 953936-095-R-J2-PDC spheroids with HUVEC/MSC, viability
# ASSAY_TEXT: Anticancer human tumor 953936-095-R-J2-PDC cell line growth inhibition [PI3K];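 note: spheroids exposed to compounds for seven days before read-out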
# CONDITION_SET: second compound 0.1 µM; first compound 0.0316 µM; stronger effect = lower value
REPORTED_METRIC: viability, T/C (%)
Value expressed in %; do not type the unit.

A selection of reference data follows.
GET /values?readout=viability, T/C&item= Cn1ncc(Cl)c1-c1cc(C(=O)NC(CN)Cc2cccc(F)c2)sc1Cl (stereo not drawn) + Cc1nc(NC(=O)N2CCCC2C(N)=O)sc1-c1ccnc(C(C)(C)C(F)(F)F)c1
79.4

Also check C=CC(=O)N1CCN(c2nc(=O)n(-c3c(C)ccnc3C(C)C)c3nc(-c4c(O)cccc4F)c(F)cc23)C(C)C1 (stereo not drawn) + CC(Nc1ccc2c(c1)OCCn1cc(N3C(=O)OCC3C(F)F)nc1-2)C(N)=O
60.2

Please give the result for Cn1nccc1Nc1nccc(-c2ccn(C(CO)c3ccc(Cl)c(F)c3)c(=O)c2)n1 (stereo not drawn) + COc1c(OCCCN2CCOCC2)ccc2c3n(c(=NC(=O)c4cnc(N)nc4)nc12)CCN3 too.
16.1

Likewise for CC1(C)CCC(CN2CCN(c3ccc(C(=O)NS(=O)(=O)c4ccc(NCC5CCOCC5)c([N+](=O)[O-])c4)c(Oc4cnc5[nH]ccc5c4)c3)CC2)=C(c2ccc(Cl)cc2)C1 + Cc1nc(NC(=O)N2CCCC2C(N)=O)sc1-c1ccnc(C(C)(C)C(F)(F)F)c1 ?
90.7

Request: C[C@@H](NC(=O)c1ncnc(N)c1Cl)c1ncc(C(=O)Nc2cc(C(F)(F)F)c(Cl)cn2)s1 + COc1c(OCCCN2CCOCC2)ccc2c3n(c(=NC(=O)c4cnc(N)nc4)nc12)CCN3
19.3

Proceed to the following item.
Dear colleague, I am looking for the recorded viability, T/C of the following molecule: CC(C)NCC(C(=O)N1CCN(c2ncnc3c2C(C)CC3O)CC1)c1ccc(Cl)cc1 (stereo not drawn) + COc1c(OCCCN2CCOCC2)ccc2c3n(c(=NC(=O)c4cnc(N)nc4)nc12)CCN3
18.9

###

# System: 953936-095-R-J2-PDC spheroids with HUVEC/MSC, viability
# ASSAY_TEXT: Anticancer human tumor 953936-095-R-J2-PDC cell line growth inhibition [PI3K];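 note: spheroids exposed to compounds for seven days before read-out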
# CONDITION_SET: second compound 0.1 µM; first compound 10 µM; stronger effect = lower value
REPORTED_METRIC: viability, T/C

Find viability, T/C (953936-095-R-J2-PDC spheroids with HUVEC/MSC, viability) for the entry CC1(C)CCC(CN2CCN(c3ccc(C(=O)NS(=O)(=O)c4ccc(NCC5CCOCC5)c([N+](=O)[O-])c4)c(Oc4cnc5[nH]ccc5c4)c3)CC2)=C(c2ccc(Cl)cc2)C1 + CC(Nc1ccc2c(c1)OCCn1cc(N3C(=O)OCC3C(F)F)nc1-2)C(N)=O
48.3%

Kindly review the next compound as well.
# value lookup — system 953936-095-R-J2-PDC spheroids with HUVEC/MSC, viability, readout viability, T/C, item CC(Cn1ccc(-c2ccc(C#N)c(Cl)c2)n1)NC(=O)c1cc(C(C)O)[nH]n1 (stereo not given) + COc1c(OCCCN2CCOCC2)ccc2c3n(c(=NC(=O)c4cnc(N)nc4)nc12)CCN3
19.8%

###

# Tested on: 953936-095-R-J2-PDC spheroids with HUVEC/MSC, viability
# ASSAY_TEXT: Anticancer human tumor 953936-095-R-J2-PDC cell line growth inhibition [PI3K];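 note: spheroids exposed to compounds for seven days before read-out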
# CONDITION_SET: curve of first compound; second compound 10 µM
# Text: Combinatorial screen of targeted agents with the PI3K inhibitors inavolisib, alpelisib, duvelisib, and copanlisib in multi-cell type tumor spheroids A high-throughput screen of multi-cell type tumor spheroids was designed to identify active combinations of targeted small molecules and PI3K pathway inhibitors. […] Compounds. […] If the clinical Cmax for an agent had not been determined, the highest concentration tested was 10 microM. […]
REPORTED_METRIC: IC50

Would you please look over these solved cases?
Field request: IC50 | item: Cn1ncc(Cl)c1-c1cc(C(=O)NC(CN)Cc2cccc(F)c2)sc1Cl (stereo unspecified) + CC(Nc1ncnc2nc[nH]c12)c1cc2cccc(Cl)c2c(=O)n1-c1ccccc1
146 nM

Subsequent entry: CC(Cn1ccc(-c2ccc(C#N)c(Cl)c2)n1)NC(=O)c1cc(C(C)O)[nH]n1 (stereo unspecified) + CC(Nc1ncnc2nc[nH]c12)c1cc2cccc(Cl)c2c(=O)n1-c1ccccc1
> 10000 nM

Here is the next compound: CCN1CCN(Cc2ccc(Nc3ncc(F)c(-c4cc(F)c5nc(C)n(C(C)C)c5c4)n3)nc2)CC1 + Cc1nc(NC(=O)N2CCCC2C(N)=O)sc1-c1ccnc(C(C)(C)C(F)(F)F)c1
< 3.16 nM

More entries:
Fill in the blank: the reported IC50 of C#Cc1c(F)ccc2cc(O)cc(-c3ncc4c(N5CC6CCC(C5)N6)nc(OCC56CCCN5CC(F)C6)nc4c3F)c12 (stereo unspecified) + CC(Nc1ncnc2nc[nH]c12)c1cc2cccc(Cl)c2c(=O)n1-c1ccccc1 is ____.
1800 nM

Now give it for CNC(=O)c1ccc(N2C(=S)N(c3ccc(C#N)c(C(F)(F)F)c3)C(=O)C2(C)C)cc1F + Cc1nc(NC(=O)N2CCCC2C(N)=O)sc1-c1ccnc(C(C)(C)C(F)(F)F)c1 too.
< 31.6 nM

Next compound up: Cn1cnc2c(F)c(Nc3ccc(Br)cc3Cl)c(C(=O)NOCCO)cc21 + Cc1nc(NC(=O)N2CCCC2C(N)=O)sc1-c1ccnc(C(C)(C)C(F)(F)F)c1
< 9.49 nM

Same for Cn1nccc1Nc1nccc(-c2ccn(C(CO)c3ccc(Cl)c(F)c3)c(=O)c2)n1 (stereo unspecified) + Cc1nc(NC(=O)N2CCCC2C(N)=O)sc1-c1ccnc(C(C)(C)C(F)(F)F)c1
< 31.6 nM

Same again, this time with Cn1nccc1Nc1nccc(-c2ccn(C(CO)c3ccc(Cl)c(F)c3)c(=O)c2)n1 (stereo unspecified) + CC(Nc1ncnc2nc[nH]c12)c1cc2cccc(Cl)c2c(=O)n1-c1ccccc1
> 10000 nM

How about this compound: CC1(C)CCC(CN2CCN(c3ccc(C(=O)NS(=O)(=O)c4ccc(NCC5CCOCC5)c([N+](=O)[O-])c4)c(Oc4cnc5[nH]ccc5c4)c3)CC2)=C(c2ccc(Cl)cc2)C1 + Cc1nc(NC(=O)N2CCCC2C(N)=O)sc1-c1ccnc(C(C)(C)C(F)(F)F)c1
< 31.6 nM

Likewise for C=CC(=O)N1CCN(c2nc(=O)n(-c3c(C)ccnc3C(C)C)c3nc(-c4c(O)cccc4F)c(F)cc23)C(C)C1 (stereo unspecified) + Cc1nc(NC(=O)N2CCCC2C(N)=O)sc1-c1ccnc(C(C)(C)C(F)(F)F)c1 ?
< 31.6 nM

What about C#Cc1c(F)ccc2cc(O)cc(-c3ncc4c(N5CC6CCC(C5)N6)nc(OCC56CCCN5CC(F)C6)nc4c3F)c12 (stereo unspecified) + Cc1nc(NC(=O)N2CCCC2C(N)=O)sc1-c1ccnc(C(C)(C)C(F)(F)F)c1 ?
< 31.6 nM
